Hey, just so you know, these numbers are from ChEMBL document CHEMBL1155413.

Assay: Cytotoxicity against mouse ScGT1 cells at 1 uM after 5 days by calcein-AM staining
Assay type: cell-based
Details: scgt1, 120 h
// assign Criterion met if Activity falls strictly below 90%, else Criterion not met (ties count as Criterion not met)

Field: below-cutoff. Rule: recorded Activity strictly less than 90%. Subject: COC(=O)[C@H](C)NC1=C(Cl)C(=O)C(N[C@@H](Cc2ccccc2)C(=O)OC)=C(Cl)C1=O
Criterion met

Field: below-cutoff. Rule: recorded Activity strictly less than 90%. Subject: COC(=O)[C@H](C)NC1=C(Cl)C(=O)C(N[C@@H](CCSC)C(=O)OC)=C(Cl)C1=O
Criterion not met

Field: below-cutoff. Rule: recorded Activity strictly less than 90%. Subject: COC(=O)[C@H](C)NC1=C(Br)C(=O)C(N[C@@H](Cc2ccccc2)C(=O)OC)=C(Br)C1=O
Criterion met

Field: below-cutoff. Rule: recorded Activity strictly less than 90%. Subject: COC(=O)[C@H](C)NC1=C(Br)C(=O)C(N[C@@H](CCSC)C(=O)OC)=C(Br)C1=O
Criterion not met

----------
Would you kindly list EC50 for each of these compounds?
Test: Antiprion activity against scrapie prion protein replication in mouse ScGT1 cells assessed as inhibition of formation of PrPSc from PrPc […] after 5 days by western-blot analysis
Type: cell-based
Settings: ScGT1, 120 h
Write down the numeric answer in µM and omit the unit.

Given COC(=O)[C@H](C)NC1=C(Cl)C(=O)C(N[C@@H](Cc2ccccc2)C(=O)OC)=C(Cl)C1=O , state its recorded EC50.
0.87

Given COC(=O)[C@H](C)NC1=C(Cl)C(=O)C(N[C@@H](Cc2c[nH]c3ccccc23)C(=O)OC)=C(Cl)C1=O , state its recorded EC50.
7.7

Given COC(=O)[C@H](C)NC1=C(Br)C(=O)C(N[C@@H](Cc2ccccc2)C(=O)OC)=C(Br)C1=O , state its recorded EC50.
3.6

----------
Assay: Cytotoxicity against mouse ScGT1 cells at 1 uM after 5 days by calcein-AM staining
Format: cell-based
Details: scgt1, 120 h
Would you kindly list Activity for each of these molecules?
Write down the numeric answer in % and omit the unit.

Given COC(=O)[C@H](C)NC1=C(Br)C(=O)C(N[C@@H](Cc2c[nH]c3ccccc23)C(=O)OC)=C(Br)C1=O , state its recorded Activity.
65.9

Given COC(=O)[C@H](C)NC1=C(Cl)C(=O)C(N[C@@H](CCCNC(=N)N[N+](=O)[O-])C(=O)OC)=C(Cl)C1=O , state its recorded Activity.
81.4

Given COC(=O)[C@H](C)NC1=C(Cl)C(=O)C(N[C@@H](C)C(=O)OC)=C(Cl)C1=O , state its recorded Activity.
71.6

Given COC(=O)[C@H](C)NC1=C(Br)C(=O)C(N[C@@H](CCCNC(=N)N[N+](=O)[O-])C(=O)OC)=C(Br)C1=O , state its recorded Activity.
74.1
